Origin of the recorded values: ChEMBL document CHEMBL4706499

Assay: Cytotoxicity against human MRC9 cells measured after 72 hrs by spectrophotometer method
Assay type: cell-based
Details: MRC9, 72 h
pIC50: −log10 of the molar value.
Catalogue of pIC50 readings, one per entry.

Answered cases to consult:
[
  {
    "Line Notation": "CC(C)(C)c1ccc(C(=O)N(Cc2ccc(C(=O)NO)cc2)C2CC2)cc1",
    "pIC50": "< 4.60"
  },
  {
    "Line Notation": "CC(C)(C)c1ccc(S(=O)(=O)NCc2ccc(C(=O)NO)cc2)cc1",
    "pIC50": "< 4.60"
  }
]

Asked: Item `O=C(NO)c1ccc(CNC(=O)c2c(F)c(F)c(F)c(F)c2F)cc1` has what recorded pIC50?
Given back: < 4.30

* * *

Assay: Apparent permeability across basolateral to apical side in human Caco2 cells measured after 2 hrs by LC-MS/MS method
Format: ADME, cell-based
Settings: Caco-2
Measurement Label: Papp B→A at 2 h (×10⁻⁶ cm/s)
Express the result in ×10⁻⁶ cm/s but write the number alone.

Asked: I would be grateful if you could share the reported Papp B→A at 2 h for `O=C(NO)c1ccc(CNC(=O)c2c(F)c(F)c(F)c(F)c2F)cc1` .
Given back: 0.94

* * *

Target: Histone deacetylase 11 (Homo sapiens, UniProt Q96DB2)
Sequence (Q96DB2 whole entry): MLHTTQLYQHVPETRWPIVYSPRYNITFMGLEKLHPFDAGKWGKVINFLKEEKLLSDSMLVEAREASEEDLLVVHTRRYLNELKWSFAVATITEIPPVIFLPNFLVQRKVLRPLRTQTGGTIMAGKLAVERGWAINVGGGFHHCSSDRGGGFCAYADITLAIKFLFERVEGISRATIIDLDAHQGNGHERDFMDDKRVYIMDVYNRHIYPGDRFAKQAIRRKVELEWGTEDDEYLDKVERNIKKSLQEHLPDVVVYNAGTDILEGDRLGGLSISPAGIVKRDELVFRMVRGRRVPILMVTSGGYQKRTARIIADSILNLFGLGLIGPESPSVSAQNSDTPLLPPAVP
Assay: Inhibition of recombinant full length human HDAC11 expressed in SF9 baculovirus using FAM- labelled acetylated peptide as substrate measured by Electrophoretic mobility shift assay
pIC50: −log10 of the molar value.
Catalogue of molecules with associated pIC50

See these solved cases before continuing.
[
  {
    "Line Notation": "O=C(/C=C/c1ccc(CNC(=O)c2c(F)c(F)c(F)c(F)c2F)cc1)NO",
    "Reported Result": "< 6.00"
  },
  {
    "Line Notation": "O=C(NO)c1ccc(NC(=O)c2c(F)c(F)c(F)c(F)c2F)cc1",
    "Reported Result": 6.15
  },
  {
    "Line Notation": "CN(Cc1ccc(C(=O)NO)cc1)C(=O)c1c(F)c(F)c(F)c(F)c1F",
    "Reported Result": "< 6.00"
  },
  {
    "Line Notation": "CC(C)(C)c1ccc(C(=O)N(Cc2ccc(C(=O)NO)cc2)C2CC2)cc1",
    "Reported Result": "< 6.00"
  },
  {
    "Line Notation": "Cc1ccc(C(=O)Nc2ccc(C(=O)NO)cc2)cc1",
    "Reported Result": "< 6.00"
  },
  {
    "Line Notation": "O=C(NO)c1ccc(NC(=O)c2ccc(C3CCCCC3)cc2)cc1",
    "Reported Result": 6.39
  },
  {
    "Line Notation": "CC(C)(C)c1ccc(NC(=O)c2ccc(C(=O)NO)cc2)cc1",
    "Reported Result": 6.35
  },
  {
    "Line Notation": "CC(C)N(Cc1ccc(C(=O)NO)cc1)C(=O)c1c(F)c(F)c(F)c(F)c1F",
    "Reported Result": "< 6.00"
  }
]

Asked: Which pIC50 is reported for this molecule? `O=C(NO)c1ccc(NC(=O)c2ccc(N3CCOCC3)cc2)cc1`
Given back: < 6.00

Asked: Another molecule: `O=C(NO)c1ccc(CNC(=O)c2c(F)c(F)c(F)c(F)c2F)cc1`
Given back: < 6.00

Asked: Another: `O=C(NO)c1ccc(NC(=O)c2ccc(C(F)(F)F)cc2)cc1`
Given back: < 6.00

Asked: Further, for `CC(C)(C)c1ccc(NS(=O)(=O)c2ccc(C(=O)NO)cc2)cc1` ?
Given back: 6.65

Asked: // repeat for `CC(C)(C)c1ccc(S(=O)(=O)NCc2ccc(C(=O)NO)cc2)cc1` and report
Given back: < 6.00

Asked: Queued: `CC(C)(C)c1ccc(S(=O)(=O)Nc2ccc(C(=O)NO)cc2)cc1`
Given back: 7.35

Asked: // repeat for `O=C(NO)c1ccc(NC(=O)c2ccc(C3CC3)cc2)cc1` and report
Given back: 6.15

Asked: Would you mind doing `O=C(NO)c1ccc(NC(=O)c2ccc(F)cc2)cc1` as well?
Given back: < 6.00
